# Tested on: P388 leukemia ip, CD2F1 mice, survival T/C
# experiment: NCI In Vivo Anticancer Drug Screen. Data for tumor model P388 Leukemia (intraperitoneal) in CD2F1 (CDF1) mice
# conditions: endpoint: median survival time; dose: 200.0 mg/kg/injection; schedule: Q01DX005 (ip); vehicle: Klucel (hydroxypropylcellulose) (HPC); higher = longer survival
Toxic doses and inconclusive results are not listed.
test.readout: T/C

* COc1cc(/C=N\NC(=O)C(C)SC(C)C(=O)N/N=C/c2cc(OC)c(OC)c(OC)c2)cc(OC)c1OC (stereo unspecified) | 90 % of control
* Cc1ccc(S(=O)(=O)C(C#N)CCC(=O)c2ccc(Cl)cc2)cc1 (stereo unspecified) | 105 % of control
* CCCCCCCCCCCN(CCCCCCCCCCC)CC(O)c1cc2c(c3ccccc13)CCCC2 (stereo unspecified) | 96 % of control
* CCOP(=O)(Nc1ccc2c(c1)Cc1c-2cc(Br)c(NC(C)=O)c1Br)OCC | 96 % of control
* C[C@@]12CCC[C@@](C)(C(=O)O)[C@H]1CC[C@]13C[C@@H](CO)[C@@H](CC[C@H]12)C3 | 87 % of control
* Cc1ccc(C(=O)CSCC(=O)c2ccc(C)cc2)cc1 | 94 % of control
* CN1C(=O)/C(=C2\SC(=O)N(CN3CCOCC3)C2=O)c2ccccc21 | 104 % of control
* O=C(CSC(c1ccccc1)(c1ccccc1)c1ccccc1)c1ccc([N+](=O)[O-])cc1 | 95 % of control
* O=C(O)C1NCCC1Oc1ccccc1 (stereo unspecified) | 100 % of control
* c1ccc(CSCCSCc2ccccn2)nc1 | 103 % of control
* Oc1ccccc1C=Nc1ccccc1N=Cc1ccccc1O.[Cu] | 90 % of control
* O=C1Nc2ccccc2/C1=N/n1c(-c2ccccc2)nc2ccccc2c1=O | 89 % of control
* OC1CC2c3ccccc3C1c1ccccc12 (stereo unspecified) | 100 % of control
* O=C(Nc1ccccc1)/C(N=Nc1ccc([N+](=O)[O-])cc1Cl)=N/Nc1ccccc1S(=O)(=O)O | 91 % of control
* Clc1nc(Cl)c2[nH]c(Cl)nc2n1 | 102 % of control
* Cc1ccc(/C=C(\NC(=O)c2ccc(C)cc2)C(=O)O)cc1 | 107 % of control
* CC1CC(c2ccccc2)(c2ccccc2)C(=O)C(C)N1C (stereo unspecified) | 97 % of control
* CCN(CC)CCOC(=O)Cc1cc(C)cc2c(=O)cc(-c3ccccc3)oc12 | 101 % of control
* CN1OC(CS(=O)(=O)c2ccccc2)(S(=O)(=O)c2ccccc2)CC1c1ccccc1 (stereo unspecified) | 101 % of control
* CCOC(=O)c1c[nH]c2ccc3[nH]cnc3c2c1=O | 95 % of control
* C=CCNC(=S)NNC(=O)Cc1nc2ccccc2[nH]1 | 92 % of control
* CC1(C(=O)O)NCCc2cc(O)c(O)cc21 (stereo unspecified) | 103 % of control
* O=C(Oc1cc(O)cc2[o+]c(-c3ccc(O)cc3)c(O)cc12)c1ccccc1 | 96 % of control
* COc1ccc(/C=C/C(=O)c2ccccc(=O)c2O)c(OC)c1 | 104 % of control
* OCC#C[C@@H]1CC[C@H]1C#CCO | 103 % of control
* Nc1nc2c(ncn2C2OC(CO)C(O)C2O)c(=O)o1 (stereo unspecified) | 116 % of control
* Cc1ccc(O)c(C(=NCCCCN=C(c2ccccc2)c2cc(C)ccc2O)c2ccccc2)c1.[Ni] | 94 % of control
* COc1ccc2c(c1)[C@@]13CCCC[C@H]1[C@@H](C2)[N+](CC1CC1)=CC3=NO | 105 % of control
* CC(C)=CC(O)C/C(C)=C/CC/C(C)=C/CCC1(C)C(CCCO)/C(=C(/C)C=O)CCC1(C)O (stereo unspecified) | 116 % of control
* COc1ccccc1C(Nc1ccc([N+](=O)[O-])cc1)P(=O)(Oc1ccccc1)Oc1ccccc1 (stereo unspecified) | 95 % of control
* Oc1c(Cl)cc(Cl)cc1C=NCCN(CCN=Cc1cc(Cl)cc(Cl)c1O)CCN=Cc1cc(Cl)cc(Cl)c1O | 101 % of control
* CCCCN(CCCC)C(=O)C(O)C(=O)N(CCCC)CCCC | 109 % of control
* O=C(O)CSc1nnc(Cc2cccc3ccccc23)n1-c1ccccc1 | 100 % of control
* Cn1ccc(C#N)c(C#N)c1=O | 97 % of control
* O=c1sc2ccccc2n1CN(CCO)Cn1c(=O)sc2ccccc21 | 90 % of control
* CC(C)(CBr)COP1(=O)NCC(C)(C)CO1 (stereo unspecified) | 106 % of control
* CC1=CC(C)(C(Cl)(Cl)Cl)C(C)=CC1=O (stereo unspecified) | 101 % of control
* Nc1ccc2c(c1N)C(=O)c1ccccc1C2=O | 100 % of control
* O=C(NC(Cc1ccc(I)cc1)C(=O)O)c1cccc(Cl)c1 (stereo unspecified) | 108 % of control
* CC(=O)Nc1ccc(S(=O)(=O)Oc2noc3ccc(Br)cc23)cc1 | 90 % of control
* CC(=O)OCc1c(-c2ccccc2)sc2ccccc2c1=O | 97 % of control

---

# Test system: P388 leukemia ip, CD2F1 mice, survival T/C
# experiment: NCI In Vivo Anticancer Drug Screen. Data for tumor model P388 Leukemia (intraperitoneal) in CD2F1 (CDF1) mice
# conditions: endpoint: median survival time; dose: 120.0 mg/kg/injection; schedule: Q01DX005 (ip); vehicle: saline with Tween-80; higher = longer survival
Inconclusive results and toxic doses are left out.
Entries and their T/C
test.readout: T/C

- O=c1[nH]cnc2nc3c(nc12)CCc1ccccc1-3: 102 % of control
- C/C(=N\N(C)C)C1=C(O)C(C(C)C)NC1=O (stereo not drawn): 105 % of control
- CCN(CC)C(=O)N(O)C1CCCCC1: 97 % of control
- O=C(O)C(CS)NSc1ccccc1[N+](=O)[O-] (stereo not drawn): 112 % of control
- COc1ccccc1NC(=O)C1=CNC(C)=C(C(=O)Nc2ccccc2OC)C1/C=C/c1ccccc1 (stereo not drawn): 105 % of control
- O=C(Nc1ccc(S(=O)(=O)Nc2nccs2)cc1)c1cccnc1Nc1cccc(Cl)c1: 113 % of control
- CC(=O)O[C@H]1CC[C@]2(C)C3CC[C@]4(C)C([C@H](C)CCCC(C)C)CCC4[C@]3(C#N)n3c(=O)n(-c4ccccc4)c(=O)n3[C@]2(C#N)C1 (stereo partly drawn): 93 % of control
- CCOC(=O)N1c2ccccc2SC1C#N (stereo not drawn): 92 % of control
- COc1ccc(-c2nnc(N)o2)cc1OC: 98 % of control
- CC(C)(C)C(=O)NC(OC(NC(=O)C(C)(C)C)C(=O)C(C)(C)C)C(=O)C(C)(C)C (stereo not drawn): 99 % of control
- COC(=O)c1cc(-c2ccc(O)c(OC)c2)n2c(NC(=O)Nc3ccc(Cl)cc3)nnc2n1: 91 % of control
- C(=NCCSSCCN=Cc1ccccc1)c1ccccc1: 93 % of control
- O=C(N/C(=C\c1cccc([N+](=O)[O-])c1)c1nc2ccccc2s1)c1ccccc1: 106 % of control
- N#CNC1=C(C#N)C(c2ccccc2)CC(=O)N1 (stereo not drawn): 101 % of control
- O=C(CCCC(=O)Nc1cccc2[nH]c3ccccc3c(=O)c12)Nc1cccc2[nH]c3ccccc3c(=O)c12: 88 % of control
- COC(=O)C1=C(C(=O)OC)CC(n2nnc(C(=O)OC)c2C(=O)OC)=CC1: 101 % of control
- COC1(OC)C2(Cl)CC(C(=O)O)C1(Cl)C(Cl)=C2Cl (stereo not drawn): 99 % of control
- O=C(c1ccccc1)N(C(=S)N(C(=O)c1ccccc1)c1ccccc1)c1ccccc1: 91 % of control
- CC1(C)OC2OC3COP(=O)(c4ccccc4)C3(CC#N)C2O1 (stereo not drawn): 99 % of control
- Cc1ccc(NC(=O)/C=C2\CONC(c3ccccc3)=N2)cc1: 91 % of control
- COC(=O)c1ncn(C(C(=O)OC)C(=O)OC)c1O: 100 % of control
- CCOC1=C(C)N2/C(=C/C(=O)OC)[C@@H]3C[C@@H](C)C[C@]2(O3)S1: 94 % of control
- COc1ccc(-n2cccc2/C=N\O)cc1OC: 94 % of control
- O=C1CSC(c2ccc(F)cc2)N1CCN1C(=O)CSC1c1ccc(F)cc1 (stereo not drawn): 100 % of control
- O=C(Nc1cc(Cl)cc(Cl)c1)OCCCl: 98 % of control
- [O-][n+]1cnn2ccccc21: 106 % of control
- COc1nc(NC2OC(CO)C(O)C(O)C2O)c(Cl)c(=O)n1C (stereo not drawn): 93 % of control
- COc1ccccc1/C=C1/C(=O)ON=C1C: 98 % of control
